# subject-of-test: Protein Kinase C beta 2 (PKCβII) (Homo sapiens (Human), UniProt P05771)
# Sequence (P05771 other isoform, or with tags, fused parts or gaps): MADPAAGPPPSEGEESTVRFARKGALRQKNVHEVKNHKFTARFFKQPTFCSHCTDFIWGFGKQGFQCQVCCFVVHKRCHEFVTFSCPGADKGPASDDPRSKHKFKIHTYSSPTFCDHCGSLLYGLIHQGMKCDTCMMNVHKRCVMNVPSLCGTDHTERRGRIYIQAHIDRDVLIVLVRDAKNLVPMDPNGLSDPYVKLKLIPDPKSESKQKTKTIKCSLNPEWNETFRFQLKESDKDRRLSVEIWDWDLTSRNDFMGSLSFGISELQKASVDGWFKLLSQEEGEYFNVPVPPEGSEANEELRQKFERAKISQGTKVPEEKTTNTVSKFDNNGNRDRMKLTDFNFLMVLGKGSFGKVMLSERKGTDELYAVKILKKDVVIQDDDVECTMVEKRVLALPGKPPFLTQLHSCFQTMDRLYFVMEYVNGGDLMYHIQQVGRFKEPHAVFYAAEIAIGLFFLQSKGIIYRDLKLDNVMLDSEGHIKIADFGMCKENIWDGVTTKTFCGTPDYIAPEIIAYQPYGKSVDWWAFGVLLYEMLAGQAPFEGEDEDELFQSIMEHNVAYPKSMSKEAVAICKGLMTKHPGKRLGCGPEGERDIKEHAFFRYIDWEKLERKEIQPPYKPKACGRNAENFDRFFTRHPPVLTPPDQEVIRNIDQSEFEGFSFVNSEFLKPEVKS
Field: label. Allowed values: 1 (yes) (Ki < 30 nM) or 0 (no) (Ki >= 30 nM).

Field: below-cutoff. Rule: recorded Ki strictly less than 30 nM. Subject: `CC1(C)c2[nH]nc(NC(=O)c3ccccc3Cl)c2CN1C(=O)N1C[C@@H]2CCCN2C[C@@H]1Cc1ccccc1`
0 (no)

Field: below-cutoff. Rule: recorded Ki strictly less than 30 nM. Subject: `C[C@H](CCO)N1C[C@H](C)N(C(=O)N2Cc3c(NC(=O)c4ccccn4)n[nH]c3C2(C)C)C[C@H]1C`
1 (yes)

Field: below-cutoff. Rule: recorded Ki strictly less than 30 nM. Subject: `C[C@H]1CN(C)C(C)(C)CN1C(=O)N1Cc2c(NC(=O)c3ccccn3)n[nH]c2C1(C)C`
1 (yes)

Field: below-cutoff. Rule: recorded Ki strictly less than 30 nM. Subject: `CCN1C[C@H](C)N(C(=O)N2Cc3c(NC(=O)c4ccccn4)n[nH]c3C2(C)C)C[C@H]1C`
1 (yes)

Field: below-cutoff. Rule: recorded Ki strictly less than 30 nM. Subject: `C[C@@H]1CN(C(=O)N2Cc3c(NC(=O)c4ccccn4)n[nH]c3C2(C)C)[C@@H](C)CN1Cc1cocn1`
0 (no)

###

# subject-of-test: Protein Kinase C beta 2 (PKCβII) (Homo sapiens (Human), UniProt P05771)
pKi: −log10 of the molar value.
Classify as follows. Reported pKi greater than or equal to 7: fulfilled. Reported pKi below: not fulfilled.

Determine whether measured pKi meets or exceeds 7 for C[C@H]1CN2CCC[C@H]2CN1C(=O)C1Cc2c(NC(=O)c3cc(Cl)cc(Cl)c3)n[nH]c2C1(C)C (stereo partly shown)
fulfilled

Determine whether measured pKi meets or exceeds 7 for `CC[C@@H]1CN(C(=O)N2Cc3c(NC(=O)c4ccccn4)n[nH]c3C2(C)C)[C@@H](C)CN1C`
fulfilled

Determine whether measured pKi meets or exceeds 7 for `CC1(C)c2[nH]nc(NC(=O)c3ccccn3)c2CN1C(=O)N1C[C@@H]2CCCN2C[C@@H]1CO`
not fulfilled

Determine whether measured pKi meets or exceeds 7 for `C[C@@H]1CN(C(=O)N2Cc3c(NC(=O)c4ccc(F)cn4)n[nH]c3C2(C)C)[C@@H](C)CN1CCCO`
fulfilled

Determine whether measured pKi meets or exceeds 7 for `CC(C)[C@H]1CN2CCC[C@H]2CN1C(=O)N1Cc2c(NC(=O)c3ccccn3)n[nH]c2C1(C)C`
fulfilled

###

Would you mind telling me the reported pKi of each entry?
# pKi: negative log10 of molar concentration; output just the value

Provide the documented pKi with UniProt:P05771 as the system for CC1CN(C(=O)N2Cc3c(NC(=O)c4ccccn4)n[nH]c3C2(C)C)CCN1CC1CC1 (centres unmarked)
6.87

Provide the documented pKi with UniProt:P05771 as the system for `CC(C)[C@H]1CN2CCC[C@H]2CN1C(=O)N1Cc2c(NC(=O)c3ccc(F)cc3F)n[nH]c2C1(C)C`
6.83

Provide the documented pKi with UniProt:P05771 as the system for CC1(C)c2[nH]nc(NC(=O)c3ccc4ccccc4n3)c2CN1C(=O)N1CCN2CCCC2C1 (centres unmarked)
7.13

Provide the documented pKi with UniProt:P05771 as the system for `C[C@@H]1CN(C(=O)N2Cc3c(NC(=O)c4ccccn4)n[nH]c3C23CC3)[C@@H](C)CN1CC1CCOCC1`
7.12

Provide the documented pKi with UniProt:P05771 as the system for CC1(C)c2[nH]nc(NC(=O)c3cccs3)c2CN1C(=O)N1CCN2CCCC2C1 (centres unmarked)
6.87
